Hello, the source for this data is paper PMC12254266, in case you need it.

# tgt: FFA1 (Homo sapiens)
# Sequence (O14842 whole entry): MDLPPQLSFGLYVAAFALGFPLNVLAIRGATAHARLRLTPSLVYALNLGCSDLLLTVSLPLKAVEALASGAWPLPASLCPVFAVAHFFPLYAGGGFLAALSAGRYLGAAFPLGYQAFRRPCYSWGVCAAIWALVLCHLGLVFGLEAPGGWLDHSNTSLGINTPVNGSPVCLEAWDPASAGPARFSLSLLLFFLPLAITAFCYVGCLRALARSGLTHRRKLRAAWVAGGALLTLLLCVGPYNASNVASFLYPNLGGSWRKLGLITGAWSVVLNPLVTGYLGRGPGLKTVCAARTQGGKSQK
# experimental protocol: Ca2+ mobilisation (Fura2) in Flp-In T-REx 293 cells expressing Nluc-FFA1, FFA1-Nluc or untagged FFA1
# Type: cell-based
# Set-up: expressed in transfected cells
# measurement parameters: Ca2+ data, mean±SEM; NR = No response
This listing pairs compounds with measured pEC50.
Respond numerically, and do not add a unit to the figure.

Here's what some known entries look like.
>>> result("COc1ccc(C(=O)N2CCC(CNC(=O)OC(C)(C)C)CC2)c(N2CCC(COc3cccc(C(CC(=O)O)C4CC4)c3)CC2)c1.O=C(O)C(F)(F)F (stereo not shown) [TUG-2450]")
6.18
>>> result("COc1ccc(C(=O)N(CC(C)(C)C)c2cccc(C)n2)c(N2CCC(COc3cccc(C(CC(=O)O)C4CC4)c3)CC2)c1.O=C(O)C(F)(F)F (stereo not shown) [Cpd 6h, reference compound]")
7.58
>>> result("COc1ccc(C(=O)N(CC(C)(C)CNc2ccc([N+](=O)[O-])c3nonc23)c2cccc(C)n2)c(N2CCC(COc3cccc(C(CC(=O)O)C4CC4)c3)CC2)c1.O=C(O)C(F)(F)F (stereo not shown) [TUG-2597]")
7.27

Continue with the compound presented below.
Q) Consider the compound COc1ccc(C(=O)NCC(C)(C)CNC(=O)OC(C)(C)C)c(N2CCC(COc3cccc(C(CC(=O)O)C4CC4)c3)CC2)c1.Cl (stereo not shown) [TUG-2457] and give its measured pEC50.
A) 6.62
